Experimental Protocol: in vitro
Design: species or system CCD841, HEK293
Experimental Setup: human, hb2 cells, read-out: HB-2 Cells Viability (%)
Reported viability at 48 h, 10 µM by item:
Numbers only; they are read as %.

Query: Could you share which viability at 48 h, 10 µM value was measured for C=CC(=O)NC(O)C(Cl)(Cl)Cl (centres unmarked) ?
Reply: 102

Query: Repeat with `CC(=O)c1cccc(NC(=O)CCl)c1`
Reply: 2.5

Query: Repeat with `N#Cc1cccc(NC(=O)CCl)c1`
Reply: 6.3

Query: Repeat with C=CC(=O)NC(C#N)C(C)C (centres unmarked)
Reply: 102

New cases:
Query: Could you share which viability at 48 h, 10 µM value was measured for `C=CC(=O)Nc1ccc(Cl)c(C#N)c1` ?
Reply: 85.7

Query: Repeat with O=C(CCl)NC1CCS(=O)(=O)C1 (centres unmarked)
Reply: 92.6

Query: Repeat with `O=C(CCl)Nc1ccc(Cl)c([N+](=O)[O-])c1`
Reply: 0.4

Query: Repeat with O=C(CCl)N(c1ccc(F)cc1)C1C=CS(=O)(=O)C1 (centres unmarked)
Reply: 27.9

Query: Repeat with `C=CC(=O)N1CCCN(C(=O)Oc2ccccc2)CC1`
Reply: 96.2

Query: Repeat with O=C(CCl)N(c1ccccc1)C1C=CS(=O)(=O)C1 (centres unmarked)
Reply: 24.1

Query: Repeat with `CN(C)S(=O)(=O)c1ccc2c(c1)CCCN2C(=O)CCl`
Reply: 21.6

* * *

Experimental Protocol: in vitro
Set-up: species or system HB2, HEK293
Experimental Setup: human, ccd841 cells
Attribute Measured: viability at 48 h, 10 µM (%)
Numbers only; they are read as %.

Query: Could you share which viability at 48 h, 10 µM value was measured for O=C(CCl)Nc1ccc(C(F)(F)F)cc1 [PCM-0102323] ?
Reply: 53.2

New cases:
Query: Could you share which viability at 48 h, 10 µM value was measured for C=CC(=O)N1CCCC(n2nc(C)nc2C)C1 (stereo not shown) [PCM-0102479] ?
Reply: 111

Query: Repeat with O=C(CCl)NCc1ccc(F)cc1 [PCM-0102192]
Reply: 76.1

Query: Repeat with O=C(CCl)NC1CCOCC1 [PCM-0103045]
Reply: 77.7

* * *

Experimental Protocol: in vitro
Parameters: species or system CCD841, HEK293
Experimental Setup: human, hb2 cells, read-out: HB-2 Cells Viability (%)
Attribute Measured: viability at 48 h, 10 µM (%)
Numbers only; they are read as %.

Field: example entries. Status: answers known.
Query: Could you share which viability at 48 h, 10 µM value was measured for C=CC(=O)N1CCCC(Oc2ncccc2F)C1 (stereo not drawn) ?
Reply: 108

Query: Repeat with `CN(C)C(=O)CNC(=O)CCl`
Reply: 103

New cases:
Query: Could you share which viability at 48 h, 10 µM value was measured for `COC(=O)c1cc(Cl)cc(Cl)c1NC(=O)CCl` ?
Reply: 97

Query: Repeat with `O=C(CCl)N=c1sccn1Cc1ccccc1`
Reply: 42.3

Query: Repeat with `Cc1c(C#N)c(NC(=O)CCl)n(C2CCCC2)c1C`
Reply: 23.9

Query: Repeat with `N#CC1(NC(=O)CCl)CCC1`
Reply: 90

* * *

Experimental Target: OTUB2 (OTUB2A) (Homo sapiens)
Construct: full length residues 1-234, E. coli BL21(DE3)-R3, His tag removed by TEV, construct 27312 Da
Sequence (Q96DC9 whole entry, the tested form may be a part): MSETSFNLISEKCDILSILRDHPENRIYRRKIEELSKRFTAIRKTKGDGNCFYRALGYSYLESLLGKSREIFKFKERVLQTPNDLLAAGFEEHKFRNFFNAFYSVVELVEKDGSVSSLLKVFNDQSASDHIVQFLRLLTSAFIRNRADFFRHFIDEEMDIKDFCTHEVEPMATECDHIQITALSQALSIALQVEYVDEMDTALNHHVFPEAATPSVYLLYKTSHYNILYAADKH
Parameters: Intact protein LC/MS covalent labelling, fragments in pools of five, 200 uM each, 4 °C
Experimental Setup: 24 h, 4 °C, pool of five; 200 µM; covalent
Attribute Measured: OTUB2
Simply state the number, no unit and no words.

Query: Could you share which OTUB2 value was measured for O=C(CCl)NC1(c2ccccc2)CCC1 [PCM-0102935] ?
Reply: 0

Query: Repeat with O=C(CCl)NC1CCN(C(=O)c2ccco2)CC1 [PCM-0102619]
Reply: 0.1

Query: Repeat with C=CC(=O)NC(c1cnn(C)c1)C(F)(F)F (centres unmarked) [PCM-0103073]
Reply: 0
